Target: Alpha-2C adrenergic receptor (Homo sapiens)
Sequence (P18825 whole entry): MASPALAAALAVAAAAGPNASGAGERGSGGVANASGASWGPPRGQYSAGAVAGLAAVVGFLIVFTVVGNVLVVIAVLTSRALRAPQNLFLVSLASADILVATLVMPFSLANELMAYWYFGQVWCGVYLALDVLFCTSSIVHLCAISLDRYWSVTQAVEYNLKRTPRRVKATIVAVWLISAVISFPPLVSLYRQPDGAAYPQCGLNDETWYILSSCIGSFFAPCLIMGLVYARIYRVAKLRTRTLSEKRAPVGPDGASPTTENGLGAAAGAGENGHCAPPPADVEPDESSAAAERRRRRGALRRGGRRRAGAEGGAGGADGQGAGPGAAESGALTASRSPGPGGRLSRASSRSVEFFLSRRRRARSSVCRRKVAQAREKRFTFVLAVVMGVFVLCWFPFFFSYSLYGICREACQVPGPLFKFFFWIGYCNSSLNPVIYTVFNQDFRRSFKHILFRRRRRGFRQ
Assay: DRUGMATRIX: Adrenergic Alpha-2C radioligand binding (ligand: [3H] MK-912); note: call rule not given here
Type: cell membranes, Sf9, Membrane
Conditions: sf9; read-out: IC50
quantity-name: IC50
# include the unit after the value

Qu. Quick one: IC50 for THIMEROSAL ?
Ans. 5.04 µM
